method description: Cytotoxicity against HBV infected human HepDE19 cells assessed as decrease in cell viability after 5 days by CCK8 assay
Format: cell-based
# CC50 at 120 h listing for each entry below

smiles entry: COC(=O)C1=C(CN2CCOC[C@@H]2C(=O)O)NC(c2nccs2)=N[C@H]1c1ccc(F)cc1Cl
relational operator: >
CC50 at 120 h, µM: 100
//
smiles entry: CCOC(=O)C1=C(CN2CCOC[C@H]2C(=O)O)NC(c2nccs2)=N[C@H]1c1ccc(F)c(F)c1Cl
relational operator: =
CC50 at 120 h, µM: 29
//
smiles entry: CCOC(=O)C1=C(CN2CCOC[C@H]2C(=O)O)NC(c2nccs2)=N[C@H]1c1ccc(F)cc1F
relational operator: >
CC50 at 120 h, µM: 100
//
smiles entry: COC(=O)C1=C(C)NC(c2nccs2)=N[C@H]1c1ccc(F)cc1Cl
relational operator: =
CC50 at 120 h, µM: 83
//
smiles entry: COC(=O)C1=C(CN2CCOC[C@H]2C(=O)O)NC(c2nccn2C)=N[C@H]1c1ccc(F)cc1Cl
relational operator: =
CC50 at 120 h, µM: 82
//
smiles entry: CCOC(=O)C1=C(CN2CCOC[C@H]2C(=O)O)NC(c2nccs2)=N[C@H]1c1ccc(F)cc1Br
relational operator: =
CC50 at 120 h, µM: 72
//
smiles entry: COC(=O)C1=C(CN2CCOC[C@H]2C(=O)O)N=C(c2nccs2)N[C@H]1c1ccc(F)cc1Cl
relational operator: >
CC50 at 120 h, µM: 100
//
smiles entry: COC(=O)C1=C(CN2CCOC[C@H]2C(=O)O)NC(c2nccs2)=N[C@H]1c1cccc(F)c1Cl
relational operator: >
CC50 at 120 h, µM: 100

# credit: ChEMBL document CHEMBL4007508
